Values were extracted from the FLAb antibody collection.

protocolText: patients with anti-drug antibodies; higher = more immunogenic
List of patients with anti-drug antibodies values.
Quick note: give the figure in %, leave out the unit.

Q) Tell me the measured patients with anti-drug antibodies of unnamed (protein) chain 1: QVQLQESGPGLVRPSQTLSLTCTVSGFTFTDFYMNWVRQPPGRGLEWIGFIRDKAKGYTTEYNPSVKGRVTMLVDTSKNQFSLRLSSVTAADTAVYYCAREGHTAAPFDYWGQGSLVTVSS chain 2: DIQMTQSPSSLSASVGDRVTITCKASQNIDKYLNWYQQKPGKAPKLLIYNTNNLQTGVPSRFSGSGSGTDFTFTISSLQPEDIATYYCLQHISRPRTFGQGTKVEIK , please.
A) 5.1

Q) How about unnamed (protein) chain 1: QVQLQESGPGLVKPSQTLSLTCTVSGGSISSGDYYWSWIRQPPGKGLEWIGYIYYSGSTDYNPSLKSRVTMSVDTSKNQFSLKVNSVTAADTAVYYCARVSIFGVGTFDYWGQGTLVTVSS chain 2: EIVMTQSPATLSLSPGERATLSCRASQSVSSYLAWYQQKPGQAPRLLIYDASNRATGIPARFSGSGSGTDFTLTISSLEPEDFAVYYCHQYGSTPLTFGGGTKAEIK ?
A) 4.1
